Assignment: determine reported inhibition for the given compounds.
- EXPERIMENTAL_DETAILS: small molecules binding CAG repeat RNA – biochemical, fluorescence, confirmation (AID 652065);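 further: loss of TO-PRO-1 fluorescence as compound displaces dye from 1x1 AA loop RNA; 0% = DMSO only wells and 100% = 100 µM mitoxantrone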
- TEST_PARAMETERS: r(CAG) RNA repeat, TO-PRO-1 dye displacement fluorescence; at 3 µM; active compounds read high
Screen size: about 4,300 compounds; about 3,000 (70%) were called active. The set was probably picked from earlier hits. A selection follows.
Answers are plain numbers, in %.

I have 8 compounds here; please give me inhibition for each one.
1. COc1ccc(-c2cc(=O)oc3cc(OCC(=O)N[C@@H](Cc4c[nH]c5ccccc45)C(=O)O)ccc23)cc1
2. O=C(N/N=C/c1cccnc1)c1cc2ccccc2cc1O
3. CC(=N\NC(=O)c1cc(Br)ccc1O)/C(=N/O)C(=O)Nc1ccccc1
4. O=C(Nc1ccccc1)Nc1nnc(COc2ccccc2F)s1
5. Cc1cc(F)ccc1S(=O)(=O)Nc1ncnc2scc(-c3ccc(F)cc3)c12
6. CC1(C(=O)NS(=O)(=O)Cc2cccc(Cl)c2)CCN1C(=O)Cc1ccc(Cl)cc1Cl (centres undefined)
7. O=C(N[C@@H](Cc1c[nH]c2ccccc12)C(=O)O)OCC1c2ccccc2-c2ccccc21
8. NC(c1ccccc1)c1csc(NC(=O)Nc2cccc(C(F)(F)F)c2)n1 (centres undefined)

1. 65.3
2. 9.03
3. 12.1
4. 42.2
5. 70.8
6. 78.9
7. 63.4
8. 59.1

====

- EXPERIMENTAL_DETAILS: small molecules binding CAG repeat RNA – biochemical, fluorescence, confirmation (AID 652065)
- TEST_PARAMETERS: r(CAG) RNA repeat, TO-PRO-1 dye displacement fluorescence; at 3 µM
The campaign covered roughly 4,300 compounds. About 3,000 (70%) were called active.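 Rule for the calls: active = inhibition above a per-plate cutoff, the mean inhibition of sample wells plus 3 SD (cut at about 35% in these data); inactive = the rest.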 So high a share suggests a set chosen from earlier hits. Not all results are given here.
Answer with one of the outcomes given here: true (active), false (inactive)

Study these solved cases before continuing.
{"COMPOUND_STRING": "C=CCn1c(=S)[nH]c2scc(-c3ccco3)c2c1=O", "CLASS_NAME": "false"}
{"COMPOUND_STRING": "CN(C)S(=O)(=O)c1cccc(-c2nn(-c3ccccc3)cc2/C=C2\\SC(=S)N(CC(=O)O)C2=O)c1", "CLASS_NAME": "true"}
{"COMPOUND_STRING": "Nc1[nH]c(=S)nc2nc(-c3ccccc3)c(-c3ccccc3)nc12", "CLASS_NAME": "false"}
{"COMPOUND_STRING": "Cc1ccc(-c2nn(-c3ccccc3)cc2/C=C2\\SC(=S)N(CCCCCC(=O)O)C2=O)o1", "CLASS_NAME": "true"}
{"COMPOUND_STRING": "O=C(O)c1cccc(NC(=O)c2cc(-c3cccc(Cl)c3)nc3ccccc23)c1", "CLASS_NAME": "true"}
{"COMPOUND_STRING": "COc1cc(/C=C2/C(=O)NN(c3cccc(Cl)c3)C2=O)cc(Br)c1O", "CLASS_NAME": "false"}
{"COMPOUND_STRING": "N#CCC(=O)Nc1ccc(C(=O)OCC(=O)Nc2sc3c(c2C#N)CCCC3)cc1", "CLASS_NAME": "false"}
{"COMPOUND_STRING": "CC(C)c1nc(SCC(=O)Nc2cccc(C(=O)O)c2)c2c3c(sc2n1)CCCC3", "CLASS_NAME": "true"}

As a next step, examine the compound that follows.
Kindly provide the recorded test outcome for the following compound: Cc1c(C)c2c(OCC(=O)N[C@@H](C(=O)O)c3ccccc3)cc3c(c2oc1=O)CCC(C)(C)O3
true

====

- EXPERIMENTAL_DETAILS: small molecules binding CAG repeat RNA – biochemical, fluorescence, confirmation (AID 652065);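 further: loss of TO-PRO-1 fluorescence as compound displaces dye from 1x1 AA loop RNA; 0% = DMSO only wells and 100% = 100 µM mitoxantrone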
- TEST_PARAMETERS: r(CAG) RNA repeat, TO-PRO-1 dye displacement fluorescence; at 3 µM
Hit rate of the full screen: of about 4,300 compounds, about 3,000 (70%) were called active.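 Rule for the calls: active = inhibition above a per-plate cutoff, the mean inhibition of sample wells plus 3 SD (cut at about 35% in these data); inactive = the rest.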 So high a share suggests a set chosen from earlier hits. The list is a sample of the results.
Answer with one of the outcomes given here: active, inactive

{"COMPOUND": "COc1ccc(Cc2nnc(SCC(=O)Nc3ccc(C)c(Cl)c3)[nH]c2=O)cc1", "CLASS_NAME": "active"}

Kindly provide the recorded test outcome for the following compound: O=C(O)c1[nH]c2ccccc2c1C(c1cccc(O)c1)c1c(C(=O)O)[nH]c2ccccc12
active

Kindly provide the recorded test outcome for the following compound: COC(=O)c1sccc1NC(=O)CSc1ccccc1NS(=O)(=O)c1cc(Cl)ccc1Cl
active

Kindly provide the recorded test outcome for the following compound: CCOc1ccc(C(=O)Nc2ccc(S(=O)(=O)Nc3cc(C)on3)cc2)cc1
inactive

Kindly provide the recorded test outcome for the following compound: O=C(Nc1nc(-c2ccco2)c(-c2ccco2)s1)c1ccco1
active

Kindly provide the recorded test outcome for the following compound: Cc1cc(Br)cn2c(Cc3cccc(F)c3)c(-c3cccc(Br)c3)nc12
inactive

Kindly provide the recorded test outcome for the following compound: Cc1c(CCC(=O)N[C@@H](CC(C)C)C(=O)O)c(=O)oc2c(C)c3oc4c(c3cc12)CCCC4
active

Kindly provide the recorded test outcome for the following compound: COc1cccc(-c2coc3cc4oc(=O)c(CC(=O)O)c(C)c4cc23)c1
active

Kindly provide the recorded test outcome for the following compound: Cc1ccc(SC(CC(=O)c2ccc(C(C)(C)C)cc2)C(=O)O)cc1 (stereo unspecified)
active

Kindly provide the recorded test outcome for the following compound: O=C1/C(=C/c2ccc(F)cc2)SC(=S)N1NS(=O)(=O)c1ccccc1
active

Kindly provide the recorded test outcome for the following compound: Cc1ccc(C(=O)Oc2coc(CSc3nnc(NC(=O)c4cccs4)s3)cc2=O)cc1C
active

Kindly provide the recorded test outcome for the following compound: O=C(O)c1ccc2c(c1)C(=O)N(c1ccc(/C=C/C(=O)c3ccccc3)cc1)C2=O
active

Kindly provide the recorded test outcome for the following compound: Fc1cccc(Cc2c(-c3cccc(Cl)c3)nc3ccc(Br)cn23)c1
active

Kindly provide the recorded test outcome for the following compound: O=C(O)c1ccc(NN=CC2=C(N3CCOCC3)/C(=C/c3ccccc3)CC2)cc1
active

Kindly provide the recorded test outcome for the following compound: CC(=O)Nc1ccc(-c2csc(NC(=O)Nc3ccccc3)n2)cc1
inactive

====

- EXPERIMENTAL_DETAILS: small molecules binding CAG repeat RNA – biochemical, fluorescence, confirmation (AID 652065);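 further: loss of TO-PRO-1 fluorescence as compound displaces dye from 1x1 AA loop RNA; 0% = DMSO only wells and 100% = 100 µM mitoxantrone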
- TEST_PARAMETERS: r(CAG) RNA repeat, TO-PRO-1 dye displacement fluorescence; at 3 µM; active compounds read high
Screen size: about 4,300 compounds; about 3,000 (70%) were called active. So high a share suggests a set chosen from earlier hits. A selection follows.
Assignment: determine reported inhibition for the given compounds.
Answers are plain numbers, in %.

I have 4 compounds here; please give me inhibition for each one.
1. COc1ccc(Cl)cc1-n1c(=S)sc2c(=O)n(-c3ccc(F)cc3)c(SCC(=O)O)nc21
2. COc1ccc(S(=O)(=O)/N=C2\C=C(NS(=O)(=O)c3ccccc3)C(=O)c3ccccc32)cc1
3. Cc1ccc(C(C)C)c(OCCSc2nc3ccccc3n2CC(=O)O)c1
4. Nc1cccc(-c2cc(-c3ccccc3)nc(-c3cccc(N)c3)n2)c1

[28.9, 85, 50.3, 21.8]

I have 5 compounds here; please give me inhibition for each one.
1. O=c1oc(-c2ccccc2NS(=O)(=O)c2ccc(Cl)cc2)nc2ccccc12
2. Cc1cc(C(=O)N/N=C/c2ccc(O)c([N+](=O)[O-])c2)c(C)n1-c1ccc(F)cc1
3. Cc1ccc(/C=C/C(=O)Nc2ccc([N+](=O)[O-])c(NC(=O)/C=C/c3ccc(C)o3)c2)o1
4. C=CCNc1nc(N)c(C(=C(C#N)C#N)c2ccccc2)s1
5. CCOc1cc(C(=O)Nc2ccc(S(=O)(=O)Nc3cnc4ccccc4n3)cc2)cc(OCC)c1OCC

1. 17.2
2. 42.6
3. 47.7
4. 15.9
5. 66.4

====

- EXPERIMENTAL_DETAILS: small molecules binding CAG repeat RNA – biochemical, fluorescence, confirmation (AID 652065);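 further: loss of TO-PRO-1 fluorescence as compound displaces dye from 1x1 AA loop RNA; 0% = DMSO only wells and 100% = 100 µM mitoxantrone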
- TEST_PARAMETERS: r(CAG) RNA repeat, TO-PRO-1 dye displacement fluorescence; at 3 µM; active compounds read high
Hit rate of the full screen: of about 4,300 compounds, about 3,000 (70%) were called active. The set was probably picked from earlier hits. Only a sample is shown.
RECORDED_METRIC: inhibition

Worked examples, 10 molecules total:
{"MOLECULE": "CCc1nnc(NS(=O)(=O)c2ccc(NC(=S)NC(=O)c3cccs3)cc2)s1", "inhibition": "46.7% (active)"}
{"MOLECULE": "Cc1ccc(C)c(Cn2nnc3c(=O)[nH]c(C(=O)Nc4ccc(F)cc4)nc32)c1", "inhibition": "43.2% (active)"}
{"MOLECULE": "CCCc1ccc(OCC(=O)NNC(=S)NC(=O)c2ccco2)cc1", "inhibition": "56.7% (active)"}
{"MOLECULE": "COC(=O)c1sc(-c2ccc(C(C)(C)C)cc2)cc1NC(=O)/C=C/C(=O)O", "inhibition": "80% (active)"}
{"MOLECULE": "Cc1ccc(S(=O)(=O)N2[C@@H](c3cccc4ccccc34)C(C(=O)O)=C[C@H]2C(C)(C)C)cc1", "inhibition": "50.3% (active)"}
{"MOLECULE": "CO/N=C(\\C(=O)N[C@@H]1C(=O)N2C(C(=O)O)=C(COC(C)=O)CS[C@H]12)c1csc(N)n1 (stereo in doubt)", "inhibition": "48.1% (active)"}
{"MOLECULE": "CN(C(=O)COC(=O)c1cc(-c2ccco2)nc2ccccc12)C1CCS(=O)(=O)C1 (stereo unspecified)", "inhibition": "27.6% (inactive)"}
{"MOLECULE": "CC(C(=O)Nc1ccc(O)c(C(=O)O)c1)N1C(=O)/C(=C/c2cccs2)SC1=S (stereo unspecified)", "inhibition": "75.9% (active)"}
{"MOLECULE": "CCc1ccc(OC(C)C(=O)Nc2ccc(S(=O)(=O)Nc3cc(C)on3)cc2)cc1 (stereo unspecified)", "inhibition": "26.1% (inactive)"}
{"MOLECULE": "O=C(N/N=C/c1cc(Cl)cc([N+](=O)[O-])c1O)C(O)(c1ccccc1)c1ccccc1", "inhibition": "52.6% (active)"}

Please indicate inhibition recorded for CC1(C(=O)NS(=O)(=O)c2ccccc2)CCN1C(=O)Cc1ccc(-c2ccccc2)cc1 (stereo unspecified)
34.1% (inactive)
